The origin of these recorded values is patent US20230312562A1.

Some compounds, each annotated with its measured TGI (total growth inhibition).
System: A498
Test: NCI-60 sulforhodamine B assay, A498
Assay type: cell-based
Study conditions: A498, renal, 48 h
Experimental endpoint: TGI (total growth inhibition) (µM)

[[record]]
compound = "Nc1n[nH]c2cc(F)c([C@@H]3Nc4c(F)cc5[nH]ncc5c4[C@H]4[C@@H]5CC[C@@H](C5)[C@H]43)cc12 (stereo in doubt)"
unit_string = "µM"
measured_value = 0.2

[[record]]
compound = "Nc1n[nH]c2ccc([C@@H]3Nc4ccc5[nH]ncc5c4[C@H]4C5CC[C@@H](C5)[C@@H]34)cc12 (stereo in doubt)"
unit_string = "µM"
measured_value = 0.646

[[record]]
compound = "Nc1n[nH]c2ccc([C@@H]3Nc4c(F)cc5[nH]ncc5c4[C@H]4[C@@H]5CC[C@@H](C5)[C@H]43)cc12 (stereo in doubt)"
unit_string = "µM"
measured_value = 0.636


###

As a worked illustration, we turn to GI50 data collected for K-562.
Experimental endpoint: GI50 (nM)

[[record]]
compound = "Nc1n[nH]c2ccc([C@@H]3Nc4c(F)cc5[nH]ncc5c4[C@H]4[C@@H]5CC[C@@H](C5)[C@H]43)cc12 (stereo in doubt)"
tgt = "K-562"
experimental_endpoint = "GI50"
measured_value = 47.7

[[record]]
compound = "Nc1n[nH]c2ccc([C@@H]3Nc4ccc5[nH]ncc5c4[C@H]4C5CC[C@@H](C5)[C@@H]34)cc12 (stereo in doubt)"
tgt = "K-562"
experimental_endpoint = "GI50"
measured_value = 264

[[record]]
compound = "Nc1n[nH]c2cc(F)c([C@@H]3Nc4c(F)cc5[nH]ncc5c4[C@H]4[C@@H]5CC[C@@H](C5)[C@H]43)cc12 (stereo in doubt)"
tgt = "K-562"
experimental_endpoint = "GI50"
measured_value = 110

[[record]]
compound = "Nc1n[nH]c2cc(F)c([C@@H]3Nc4ccc5[nH]ncc5c4[C@H]4[C@@H]5CC[C@@H](C5)[C@H]43)cc12 (stereo in doubt)"
tgt = "K-562"
experimental_endpoint = "GI50"
measured_value = 92.2


###

Tested on: Ovcar-4
Test: NCI-60 sulforhodamine B assay, Ovcar-4
Assay type: cell-based
Study conditions: Homo sapiens; Ovcar-4, ovarian, 48 h
Some compounds, each annotated with its measured GI50.
Experimental endpoint: GI50 (nM)

[[record]]
compound = "Nc1n[nH]c2ccc([C@@H]3Nc4ccc5[nH]ncc5c4[C@H]4C5CC[C@@H](C5)[C@@H]34)cc12 (stereo in doubt)"
unit_string = "nM"
measured_value = 2140

[[record]]
compound = "Nc1n[nH]c2ccc([C@@H]3Nc4c(F)cc5[nH]ncc5c4[C@H]4[C@@H]5CC[C@@H](C5)[C@H]43)cc12 (stereo in doubt)"
unit_string = "nM"
measured_value = 3340

[[record]]
compound = "Nc1n[nH]c2cc(F)c([C@@H]3Nc4ccc5[nH]ncc5c4[C@H]4[C@@H]5CC[C@@H](C5)[C@H]43)cc12 (stereo in doubt)"
unit_string = "nM"
measured_value = 416

[[record]]
compound = "Nc1n[nH]c2cc(F)c([C@@H]3Nc4c(F)cc5[nH]ncc5c4[C@H]4[C@@H]5CC[C@@H](C5)[C@H]43)cc12 (stereo in doubt)"
unit_string = "nM"
measured_value = 1170


###

Some molecules, each annotated with its measured GI50.
Tested on: MDA-MB-435
Experimental endpoint: GI50

[[record]]
molecule = "Nc1n[nH]c2cc(F)c([C@@H]3Nc4ccc5[nH]ncc5c4[C@H]4[C@@H]5CC[C@@H](C5)[C@H]43)cc12 (stereo in doubt) [Compound 27]"
experimental_endpoint = "GI50"
measured_value = "94.3 nM"

[[record]]
molecule = "Nc1n[nH]c2cc(F)c([C@@H]3Nc4c(F)cc5[nH]ncc5c4[C@H]4[C@@H]5CC[C@@H](C5)[C@H]43)cc12 (stereo in doubt) [Compound 23]"
experimental_endpoint = "GI50"
measured_value = "84.6 nM"

[[record]]
molecule = "Nc1n[nH]c2ccc([C@@H]3Nc4c(F)cc5[nH]ncc5c4[C@H]4[C@@H]5CC[C@@H](C5)[C@H]43)cc12 (stereo in doubt) [Compound 22]"
experimental_endpoint = "GI50"
measured_value = "34.8 nM"

[[record]]
molecule = "Nc1n[nH]c2ccc([C@@H]3Nc4ccc5[nH]ncc5c4[C@H]4C5CC[C@@H](C5)[C@@H]34)cc12 (stereo in doubt) [HSD1787]"
experimental_endpoint = "GI50"
measured_value = "124 nM"


###

Tested on: SR
Experimental endpoint: GI50 (nM)

[[record]]
molecule = "Nc1n[nH]c2cc(F)c([C@@H]3Nc4ccc5[nH]ncc5c4[C@H]4[C@@H]5CC[C@@H](C5)[C@H]43)cc12 (stereo in doubt)"
experimental_endpoint = "GI50"
measured_value = 59.8

[[record]]
molecule = "Nc1n[nH]c2ccc([C@@H]3Nc4c(F)cc5[nH]ncc5c4[C@H]4[C@@H]5CC[C@@H](C5)[C@H]43)cc12 (stereo in doubt)"
experimental_endpoint = "GI50"
measured_value = 87.7

[[record]]
molecule = "Nc1n[nH]c2cc(F)c([C@@H]3Nc4c(F)cc5[nH]ncc5c4[C@H]4[C@@H]5CC[C@@H](C5)[C@H]43)cc12 (stereo in doubt)"
experimental_endpoint = "GI50"
measured_value = 131

[[record]]
molecule = "Nc1n[nH]c2ccc([C@@H]3Nc4ccc5[nH]ncc5c4[C@H]4C5CC[C@@H](C5)[C@@H]34)cc12 (stereo in doubt)"
experimental_endpoint = "GI50"
measured_value = 233


###

Test system: Ovcar-8
Experimental endpoint: GI50 (nM)

[[record]]
compound = "Nc1n[nH]c2cc(F)c([C@@H]3Nc4c(F)cc5[nH]ncc5c4[C@H]4[C@@H]5CC[C@@H](C5)[C@H]43)cc12 (stereo in doubt)"
unit_string = "nM"
measured_value = 142

[[record]]
compound = "Nc1n[nH]c2cc(F)c([C@@H]3Nc4ccc5[nH]ncc5c4[C@H]4[C@@H]5CC[C@@H](C5)[C@H]43)cc12 (stereo in doubt)"
unit_string = "nM"
measured_value = 194

[[record]]
compound = "Nc1n[nH]c2ccc([C@@H]3Nc4ccc5[nH]ncc5c4[C@H]4C5CC[C@@H](C5)[C@@H]34)cc12 (stereo in doubt)"
unit_string = "nM"
measured_value = 479

[[record]]
compound = "Nc1n[nH]c2ccc([C@@H]3Nc4c(F)cc5[nH]ncc5c4[C@H]4[C@@H]5CC[C@@H](C5)[C@H]43)cc12 (stereo in doubt)"
unit_string = "nM"
measured_value = 448


###

System: SK-MEL-28
Experimental endpoint: GI50 (nM)

[[record]]
compound = "Nc1n[nH]c2cc(F)c([C@@H]3Nc4ccc5[nH]ncc5c4[C@H]4[C@@H]5CC[C@@H](C5)[C@H]43)cc12 (stereo in doubt) [Compound 27]"
experimental_endpoint = "GI50"
measured_value = 352

[[record]]
compound = "Nc1n[nH]c2ccc([C@@H]3Nc4c(F)cc5[nH]ncc5c4[C@H]4[C@@H]5CC[C@@H](C5)[C@H]43)cc12 (stereo in doubt) [Compound 22]"
experimental_endpoint = "GI50"
measured_value = 1400

[[record]]
compound = "Nc1n[nH]c2ccc([C@@H]3Nc4ccc5[nH]ncc5c4[C@H]4C5CC[C@@H](C5)[C@@H]34)cc12 (stereo in doubt) [HSD1787]"
experimental_endpoint = "GI50"
measured_value = 934

[[record]]
compound = "Nc1n[nH]c2cc(F)c([C@@H]3Nc4c(F)cc5[nH]ncc5c4[C@H]4[C@@H]5CC[C@@H](C5)[C@H]43)cc12 (stereo in doubt) [Compound 23]"
experimental_endpoint = "GI50"
measured_value = 3680


###

As a worked illustration, we turn to GI50 data collected for A498.
Experimental endpoint: GI50 (nM)

[[record]]
compound = "Nc1n[nH]c2ccc([C@@H]3Nc4ccc5[nH]ncc5c4[C@H]4C5CC[C@@H](C5)[C@@H]34)cc12 (stereo in doubt)"
unit_string = "nM"
measured_value = 179

[[record]]
compound = "Nc1n[nH]c2cc(F)c([C@@H]3Nc4c(F)cc5[nH]ncc5c4[C@H]4[C@@H]5CC[C@@H](C5)[C@H]43)cc12 (stereo in doubt)"
unit_string = "nM"
measured_value = 69

[[record]]
compound = "Nc1n[nH]c2ccc([C@@H]3Nc4c(F)cc5[nH]ncc5c4[C@H]4[C@@H]5CC[C@@H](C5)[C@H]43)cc12 (stereo in doubt)"
unit_string = "nM"
measured_value = 72.2

[[record]]
compound = "Nc1n[nH]c2cc(F)c([C@@H]3Nc4ccc5[nH]ncc5c4[C@H]4[C@@H]5CC[C@@H](C5)[C@H]43)cc12 (stereo in doubt)"
unit_string = "nM"
measured_value = 71.4


###

As a worked illustration, we turn to GI50 data collected for Ovcar-3.
Experimental endpoint: GI50 (nM)

[[record]]
compound = "Nc1n[nH]c2ccc([C@@H]3Nc4c(F)cc5[nH]ncc5c4[C@H]4[C@@H]5CC[C@@H](C5)[C@H]43)cc12 (stereo in doubt)"
tgt = "Ovcar-3"
measured_value = 220

[[record]]
compound = "Nc1n[nH]c2cc(F)c([C@@H]3Nc4c(F)cc5[nH]ncc5c4[C@H]4[C@@H]5CC[C@@H](C5)[C@H]43)cc12 (stereo in doubt)"
tgt = "Ovcar-3"
measured_value = 103

[[record]]
compound = "Nc1n[nH]c2ccc([C@@H]3Nc4ccc5[nH]ncc5c4[C@H]4C5CC[C@@H](C5)[C@@H]34)cc12 (stereo in doubt)"
tgt = "Ovcar-3"
measured_value = 243

[[record]]
compound = "Nc1n[nH]c2cc(F)c([C@@H]3Nc4ccc5[nH]ncc5c4[C@H]4[C@@H]5CC[C@@H](C5)[C@H]43)cc12 (stereo in doubt)"
tgt = "Ovcar-3"
measured_value = 138

